Where do the numbers come from? From the antibiotic and cytotoxicity screens of Wong et al. (2023).

test system: HSkMC (human skeletal muscle cells); test: cytotoxicity call (relative viability < 0.9); conditions: 10 µM
The whole screen tested about 39,000 compounds, of which about 1,500 (3.8%) were called active. The list comes from a sample in which actives are over-represented; it also holds close analogues and randomly drawn compounds.
The categories you may choose from are active, inactive

These solved cases illustrate the format of a correct answer.
>>> class("COc1ccc(S(=O)(=O)Nc2ccc3c(c2)C(=O)N([C@H](C)CO)C[C@H](C)[C@@H](CN(C)C(=O)NC2CCCCC2)OCCCC[C@H](C)O3)cc1")
"inactive"
>>> class("C[C@@H]1CN([C@H](C)CO)C(=O)c2cc(NC(=O)Nc3ccc(C(F)(F)F)cc3)ccc2O[C@@H]1CN(C)S(=O)(=O)c1ccc(F)cc1")
"active"
>>> class("C[C@@H]1CN([C@@H](C)CO)C(=O)Cc2cc(NS(=O)(=O)c3ccccc3)ccc2O[C@@H]1CN(C)CC1CC1")
"inactive"
>>> class("O=C(C[C@H]1C[C@H]2c3cc(NC(=O)Nc4ccc(C(F)(F)F)cc4)ccc3O[C@H]2[C@@H](CO)O1)NCCc1ccccc1")
"inactive"
>>> class("C[C@H](CO)N1C[C@H](C)[C@H](CN(C)S(=O)(=O)c2ccc(F)cc2)Oc2ccc(NC(=O)Nc3ccc(C(F)(F)F)cc3)cc2C1=O")
"active"

How was CC(C)NC(=O)Nc1cccc2c1O[C@@H](CN(C)Cc1ccc3c(c1)OCO3)[C@@H](C)CN([C@H](C)CO)C2=O classified in this test?
inactive

Could you please tell me the result logged for Cc1noc(C)c1NC(=O)N(C)C[C@H]1Oc2c(NC(=O)Nc3ccc(C(F)(F)F)cc3)cccc2C(=O)N([C@H](C)CO)C[C@@H]1C in this assay?
inactive
